- TARGET OF ASSAY: P-glycoprotein (ATPase activity) (Homo sapiens)
- Sequence (P08183 whole entry): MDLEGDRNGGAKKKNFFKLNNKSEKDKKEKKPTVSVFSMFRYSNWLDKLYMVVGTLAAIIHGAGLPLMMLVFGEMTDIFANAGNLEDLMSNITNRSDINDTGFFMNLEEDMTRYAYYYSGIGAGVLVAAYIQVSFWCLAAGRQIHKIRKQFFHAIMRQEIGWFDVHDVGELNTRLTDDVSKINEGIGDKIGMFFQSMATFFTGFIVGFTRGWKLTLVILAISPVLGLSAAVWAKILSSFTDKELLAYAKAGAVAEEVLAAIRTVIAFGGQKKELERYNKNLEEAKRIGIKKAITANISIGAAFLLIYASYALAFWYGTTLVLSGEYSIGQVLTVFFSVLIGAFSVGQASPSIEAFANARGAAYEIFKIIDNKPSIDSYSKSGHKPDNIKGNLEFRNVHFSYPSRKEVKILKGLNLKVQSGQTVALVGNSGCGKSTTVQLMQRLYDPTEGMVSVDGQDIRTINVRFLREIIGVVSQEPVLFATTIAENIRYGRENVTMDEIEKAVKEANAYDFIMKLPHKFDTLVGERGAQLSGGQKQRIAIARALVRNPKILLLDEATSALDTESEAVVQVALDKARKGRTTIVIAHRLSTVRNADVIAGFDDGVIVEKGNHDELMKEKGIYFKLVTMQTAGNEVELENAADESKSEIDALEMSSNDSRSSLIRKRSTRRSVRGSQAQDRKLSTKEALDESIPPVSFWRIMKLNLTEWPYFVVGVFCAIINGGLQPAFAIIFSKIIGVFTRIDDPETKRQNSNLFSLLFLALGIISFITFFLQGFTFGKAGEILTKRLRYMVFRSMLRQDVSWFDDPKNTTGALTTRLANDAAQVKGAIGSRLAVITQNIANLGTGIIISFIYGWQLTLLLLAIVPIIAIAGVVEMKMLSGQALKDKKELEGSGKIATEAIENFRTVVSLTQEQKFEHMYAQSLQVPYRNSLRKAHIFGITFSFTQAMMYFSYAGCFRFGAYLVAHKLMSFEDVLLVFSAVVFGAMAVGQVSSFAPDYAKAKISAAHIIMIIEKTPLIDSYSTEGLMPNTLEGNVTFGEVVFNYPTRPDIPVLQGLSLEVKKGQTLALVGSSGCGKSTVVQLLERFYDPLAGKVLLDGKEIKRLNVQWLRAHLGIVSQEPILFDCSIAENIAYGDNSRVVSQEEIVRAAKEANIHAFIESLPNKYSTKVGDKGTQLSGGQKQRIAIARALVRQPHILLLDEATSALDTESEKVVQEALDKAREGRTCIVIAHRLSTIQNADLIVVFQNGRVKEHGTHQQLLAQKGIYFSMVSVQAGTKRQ
- TEST PROTOCOL: in vitro
- COND: human
Listed below: IC50 values for each entry.
Just the number please, in µM, no unit attached.

O=C(O)c1c(Cl)c(Cl)c(Cl)c(Cl)c1-c1c2cc(Br)c(=O)c(Br)c-2oc2c(Br)c(O)c(Br)cc12 [Phloxine (PL), phloxine]	24.5

Please turn your attention to the following entry.
Annotate the compound O=C(O)c1c(Cl)c(Cl)c(Cl)c(Cl)c1-c1c2cc(I)c(=O)c(I)c-2oc2c(I)c(O)c(I)cc12 [Rose Bengal (RB), rose bengal] with its measured IC50. 11.7

###

- TARGET OF ASSAY: UGT1A6 (Homo sapiens, UniProt P19224)
- Sequence (P19224 27-532): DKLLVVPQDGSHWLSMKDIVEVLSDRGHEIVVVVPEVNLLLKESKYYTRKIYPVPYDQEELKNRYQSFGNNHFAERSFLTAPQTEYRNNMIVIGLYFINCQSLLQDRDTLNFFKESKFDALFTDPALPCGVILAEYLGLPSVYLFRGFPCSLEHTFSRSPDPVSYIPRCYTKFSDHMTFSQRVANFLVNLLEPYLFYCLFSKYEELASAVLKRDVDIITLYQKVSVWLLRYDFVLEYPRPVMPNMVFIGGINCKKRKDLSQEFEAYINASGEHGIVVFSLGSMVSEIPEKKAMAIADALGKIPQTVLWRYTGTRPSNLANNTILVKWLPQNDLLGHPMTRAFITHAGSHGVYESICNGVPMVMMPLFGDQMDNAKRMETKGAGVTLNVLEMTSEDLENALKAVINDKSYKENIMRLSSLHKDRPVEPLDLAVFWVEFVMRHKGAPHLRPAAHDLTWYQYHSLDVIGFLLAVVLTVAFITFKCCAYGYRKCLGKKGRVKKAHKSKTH
- TEST PROTOCOL: Inhibition of UGT1A6 activity (glucuronidation of p-nitrophenol) in pooled human liver microsomes
- COND: read-out: IC50 value UGT1A6; pooled human liver microsomes; p-nitrophenol glucuronidation
REPORTED METRIC: IC50

Annotate the compound O=S(=O)(O)c1cc(S(=O)(=O)O)c2c(N=Nc3ccc(S(=O)(=O)O)c4ccccc34)c(O)ccc2c1 [New coccine (NC), new coccine] with its measured IC50. > 1 mM

###

- TARGET OF ASSAY: UniProt:P19224
- TEST PROTOCOL: Inhibition of UGT1A6 activity (glucuronidation of p-nitrophenol) in pooled human liver microsomes
REPORTED METRIC: Inhibition of UGT1A6 activity (in words)

Illustrative cases are given below, each with its answer.
CC(=O)Nc1c(I)c(NC(C)=O)c(I)c(C(=O)[O-])c1I.[Na+] [sodium diatrizoate, reference compound]	no inhibition
CC(=O)N(CC(O)CN(C(C)=O)c1c(I)c(C(=O)NCC(O)CO)c(I)c(C(=O)NCC(O)CO)c1I)c1c(I)c(C(=O)NCC(O)CO)c(I)c(C(=O)NCC(O)CO)c1I (stereo not drawn) [iodixanol, reference compound]	no inhibition
COc1cc(S(=O)(=O)[O-])c(C)cc1N=Nc1c(O)ccc2cc(S(=O)(=O)[O-])ccc12.[Na+].[Na+] [Allura red (AL), allura red]	insignificant inhibition
CCN(Cc1cccc(S(=O)(=O)[O-])c1)c1ccc(C(=C2C=CC(=[N+](CC)Cc3cccc(S(=O)(=O)[O-])c3)C=C2)c2ccccc2S(=O)(=O)[O-])cc1.[Na+].[Na+] [Brilliant blue FCF (BB), brilliant blue FCF]	insignificant inhibition
O=S(=O)([O-])c1ccc2c(N=Nc3ccc(S(=O)(=O)[O-])c4ccccc34)c(O)c(S(=O)(=O)[O-])cc2c1.[Na+].[Na+].[Na+] [Amaranth (AM), amaranth]	insignificant inhibition

Annotate the compound CNC(=O)c1c(I)c(NC(C)=O)c(I)c(C(=O)O)c1I.CNC[C@H](O)[C@@H](O)[C@H](O)[C@H](O)CO [meglumine iotalamate, reference compound] with its measured Inhibition of UGT1A6 activity (in words). no inhibition
